test system: Klebsiella pneumonia (1.1736); assay: Antimicrobial activity, broth microdilution MIC; type: cell-based; conditions: modified CLSI broth microdilution, LB medium, 1 × 10^6 CFU/ml, 37 °C, 18 to 20 hours, absorbance 600 nm
Where no end group is shown, it is not given here.
endpoint: MIC K. pneumoniae
# output: numeric value plus its unit

Assign MIC K. pneumoniae to the following record: AIGSILGRLAKGLPTLKSWIKNR-NH2 [A(A8R, I17K)]
25 µM

Supply MIC K. pneumoniae value. Item: AIGSILGALAKGLPTLKSWIKNR-NH2 [A(I17K)]
50 µM

Give the value of MIC K. pneumoniae reported for the following: RIGVLLARLPKLFSLFKLMGKKV-NH2 [RV-23, reference compound]
6.25 µM

Dear colleague, please send me the reported MIC K. pneumoniae for AIGSILGALAKGLPTLISWIKNR-NH2 [AR-23, reference compound] when you can.
12.5 µM

Return MIC K. pneumoniae (reported value) for this substance: AIGSILGALAKGLPTLRSWIKNR-NH2 [A(I17R)]
25 µM

Give MIC K. pneumoniae for the following substance: RIGSILGRLAKGLPTLISWIKNR-NH2 [A(A1R, A8R)]
6.25 µM

Please indicate MIC K. pneumoniae recorded for RIGSILGALAKGLPTLKSWIKNR-NH2 [A(A1R, I17K)]
25 µM

Identify MIC K. pneumoniae associated with the substance RIGSILGALAKGLPTLISWIKNR-NH2 [A(A1R)]
12.5 µM

Now look at this one.
# return recorded MIC K. pneumoniae for entry RIGSILGRLAKGLPTLKSWIKNR-NH2 [A(A1R, A8R, I17K)]
12.5 µM
